molecular target: recombinant human cGAS (aa147-522) (Homo sapiens, UniProt Q8N884); construct: recombinant human cGAS (aa147-522); His6-SUMO (cleaved yes); made in house; host or cells: E. coli BL21/pLys; test: In vitro inhibition assay of cGAS activity (ATP consumption, KinaseGlo Max); format: biochemical; settings: Table 3, read-out: cGAS Inhibition Results IC50
Sequence (Q8N884 147-522): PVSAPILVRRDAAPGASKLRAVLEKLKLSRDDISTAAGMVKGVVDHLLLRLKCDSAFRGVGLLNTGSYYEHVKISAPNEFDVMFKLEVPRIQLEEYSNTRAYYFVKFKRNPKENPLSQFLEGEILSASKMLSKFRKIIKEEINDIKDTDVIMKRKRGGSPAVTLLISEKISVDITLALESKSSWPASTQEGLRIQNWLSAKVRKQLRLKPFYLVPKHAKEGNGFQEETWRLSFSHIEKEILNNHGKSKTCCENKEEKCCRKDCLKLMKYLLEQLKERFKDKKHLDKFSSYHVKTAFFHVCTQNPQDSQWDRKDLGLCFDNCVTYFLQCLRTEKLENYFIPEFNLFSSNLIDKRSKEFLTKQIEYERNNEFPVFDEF
measurement.label: IC50

Answered cases to consult:
IC50 for COC(=O)CCC(=O)NNc1cc(-n2ccnc2)c2ccc(Cl)c(Cl)c2n1 ?
2000 to 30000 nM

IC50 for O=C(O)CCNC(=O)[C@@H]1CN(c2cc(-n3ccnc3)c3ccc(Cl)c(Cl)c3n2)CCO1 ?
< 2000 nM

IC50 for COC(=O)CCC[C@@H]1CCCN1c1cc(-n2ccnc2)c2ccc(Cl)c(Cl)c2n1 ?
2000 to 30000 nM

IC50 for O=C(O)C1CCN(C(=O)[C@@H]2CCCN2c2cc(-n3ccnc3)c3ccc(Cl)c(Cl)c3n2)CC1 ?
< 2000 nM

IC50 for O=C(O)COCCC[C@@H]1CCCN1c1cc(-n2ccnc2)c2ccc(Cl)c(Cl)c2n1 ?
< 2000 nM

IC50 for COc1ccc2c(-n3ccnc3)cc(N3CCC[C@H]3COCCC(=O)O)nc2c1Cl ?
< 2000 nM

// below: IC50 requested for another molecule
IC50 for CC12CN(c3cc(-n4ccnc4)c4ccc(Cl)c(Cl)c4n3)C(C(=O)O)(C1)C2 ?
2000 to 30000 nM

---

biological target: recombinant human cGAS (aa147-522) (Homo sapiens); construct: recombinant human cGAS (aa147-522); His6-SUMO (cleaved yes); made in house; host or cells: E. coli BL21/pLys; test: In vitro inhibition assay of cGAS activity (ATP consumption, KinaseGlo Max); assay type: biochemical; conditions: Table 2, read-out: cGAS Inhibition Results IC50
pIC50: −log10 of the molar value.
# pIC50 per entry

Answered cases to consult:
pIC50 for O=S(=O)(O)CC(Cc1ccccc1)Nc1cc(-n2ccnc2)c2ccc(Cl)c(Cl)c2n1 (stereo not drawn) [I-162] ?
< 4.52

pIC50 for COc1ccc(C(=O)O)cc1-c1cc(-n2ccnc2)c2ccc(Cl)cc2n1 [I-30] ?
4.52 to 5.70

pIC50 for Clc1ccc2c(-n3ccnc3)cc(NCCN3CCOCC3)nc2c1 [I-354] ?
< 4.52

New cases:
pIC50 for O=P(O)(O)Cc1cc(-n2ccnc2)c2ccc(Cl)c(Cl)c2n1 [I-251] ?
< 4.52

pIC50 for O=S(=O)(O)CCNc1cc(-n2ccnc2)c2ccc(Cl)c(Cl)c2n1 [I-158] ?
> 5.70

pIC50 for O=C(O)c1cc(-c2cc(-n3ccnc3)c3ccc(Cl)cc3n2)cnc1O [I-57] ?
4.52 to 5.70

---

target: recombinant human cGAS (aa147-522) (Homo sapiens); construct: recombinant human cGAS (aa147-522); His6-SUMO (cleaved yes); made in house; host or cells: E. coli BL21/pLys; assay: In vitro inhibition assay of cGAS activity (ATP consumption, KinaseGlo Max); type: biochemical; settings: Table 2, read-out: cGAS Inhibition Results IC50
measurement.label: IC50

Answered cases to consult:
IC50 for O=C(O)CN(Cc1ccncc1)c1cc(-n2ccnc2)c2ccc(Cl)c(Cl)c2n1 [I-176] ?
2000 to 30000 nM

IC50 for CC(C)(C)OC(=O)N1CCOC(CNc2cc(-c3cn[nH]c3)c3ccc(Cl)c(Cl)c3n2)C1 (stereo not drawn) [I-399] ?
2000 to 30000 nM

IC50 for O=C(O)[C@@H]1C[C@H](Oc2ccccc2)CN1c1cc(-c2cn[nH]c2)c2ccc(Cl)c(Cl)c2n1 [I-360] ?
< 2000 nM

IC50 for O=C(O)CNc1cc(Cl)c2ccc(Cl)c(Cl)c2n1 [I-171] ?
> 30000 nM

IC50 for OC1CCN(c2cc(-n3ccnc3)c3ccc(Cl)c(Cl)c3n2)CC1 [I-132] ?
2000 to 30000 nM

IC50 for C[C@@H](Nc1cc(-c2cn[nH]c2)nc2c(Cl)c(Cl)ccc12)C(=O)OC(C)(C)C [I-290] ?
2000 to 30000 nM

IC50 for CN(CCC(=O)NCc1ccccc1)c1cc(-c2cn[nH]c2)c2ccc(Cl)c(Cl)c2n1 [I-193] ?
2000 to 30000 nM

IC50 for NS(=O)(=O)CCNc1cc(NCC(=O)O)c2ccc(Cl)c(Cl)c2n1 [I-318] ?
> 30000 nM

New cases:
IC50 for O=C(O)c1cc(-c2cc(-n3ccnc3)c3ccc(Cl)cc3n2)ccc1OCCO [I-21] ?
< 2000 nM

IC50 for O=[PH](O)OCCC1CCCN(c2cc(-c3cn[nH]c3)c3ccc(Cl)c(Cl)c3n2)C1 (stereo not drawn) [I-330] ?
< 2000 nM

IC50 for O=C(O)[C@@H]1C[C@@H](Oc2ccccc2)CN1c1cc(-c2cn[nH]c2)c2ccc(Cl)c(Cl)c2n1 [I-361] ?
2000 to 30000 nM

Where do these numbers come from? They come from patent US11873291B2.
